From: patent US8664257B2

# system.tested: Recombinant human cathepsin A (Homo sapiens, UniProt P10619)
# Construct: Recombinant human cathepsin A (residues 29-480, with a C-terminal 10-His tag); 10-His (C); purchased R&D Systems 1049-SE
# test.protocol: Cathepsin A inhibitory activity
# Assay type: biochemical
# assay.context: read-out: Activity (2): Cathepsin A inhibitory activity, IC50 class
parameter.measured: IC50

Task item: Endpoint output: IC50 of CC(C)(C)Oc1cccc(C(CC(=O)O)NC(=O)c2cc(O)n(-c3ccccc3)n2)c1 (centres unmarked) [Example 6] . Value?
Reply: 1000 to 30000 nM

Task item: Endpoint output: IC50 of COc1ccc(C(CC(=O)O)NC(=O)c2cc(O)n(-c3ccc(F)cc3F)n2)c(OC)c1 (centres unmarked) [Example 383] . Value?
Reply: 100 to 1000 nM

Task item: Endpoint output: IC50 of O=C(O)C[C@H](NC(=O)c1cc(O)n(-c2ccccc2Cl)n1)c1ccccc1C(F)(F)F [Example 108] . Value?
Reply: 100 to 1000 nM

Task item: Endpoint output: IC50 of O=C(O)CC(NC(=O)c1cc(O)n(-c2ccc(Cl)cc2)n1)c1ccc(F)cc1 (centres unmarked) [Example 73] . Value?
Reply: 1000 to 30000 nM

---

# system.tested: Recombinant human cathepsin A (Homo sapiens, UniProt P10619)
# Construct: Recombinant human cathepsin A (residues 29-480, with a C-terminal 10-His tag); 10-His (C); purchased R&D Systems 1049-SE
# test.protocol: Cathepsin A inhibitory activity
# Type: biochemical
# assay.context: recombinant human cathepsin A; read-out: Activity (2): Cathepsin A inhibitory activity, IC50 class
pIC50: −log10 of the molar value.
Items are presented alongside their recorded pIC50.

| molecule | pIC50 |
| --- | --- |
| O=C(O)CC(NC(=O)c1cc(O)n(-c2ccccc2F)n1)c1cc(F)ccc1F (centres unmarked) | 6.00 to 7.00 |
| Cc1ccc(F)cc1C(CC(=O)O)NC(=O)c1cc(O)n(-c2cccc(Cl)c2)n1 (centres unmarked) | 6.00 to 7.00 |
| O=C(O)CC(NC(=O)c1cc(O)n(-c2ccc(F)cc2F)n1)c1cc(Cl)ccc1Cl (centres unmarked) | > 7.00 |
| O=C(O)CC(NC(=O)c1cc(O)n(-c2cccc(F)c2)n1)c1cc(Cl)ccc1Cl (centres unmarked) | 6.00 to 7.00 |
| COc1ccc([C@H](CC(=O)O)NC(=O)c2cc(O)n(-c3cccc(F)c3)n2)cc1 | 4.52 to 6.00 |

Task item: Endpoint output: pIC50 of O=C(O)CC(NC(=O)c1cc(O)n(-c2ccc(F)cc2)n1)c1cccc2c1OC(F)(F)O2 (centres unmarked) . Value?
Reply: 6.00 to 7.00

Task item: Endpoint output: pIC50 of Cc1cc(F)ccc1C(CC(=O)O)NC(=O)c1cc(O)n(-c2cccc(Cl)c2)n1 (centres unmarked) . Value?
Reply: 6.00 to 7.00

Task item: Endpoint output: pIC50 of Cc1cccc(C(CC(=O)O)NC(=O)c2cc(O)n(-c3cccc(F)c3)n2)c1C (centres unmarked) . Value?
Reply: 6.00 to 7.00

---

Items are presented alongside their recorded pIC50.
# system.tested: Recombinant human cathepsin A (Homo sapiens, UniProt P10619)
# Construct: Recombinant human cathepsin A (residues 29-480, with a C-terminal 10-His tag); 10-His (C); purchased R&D Systems 1049-SE
# Sequence (P10619 29-312 limits assumed): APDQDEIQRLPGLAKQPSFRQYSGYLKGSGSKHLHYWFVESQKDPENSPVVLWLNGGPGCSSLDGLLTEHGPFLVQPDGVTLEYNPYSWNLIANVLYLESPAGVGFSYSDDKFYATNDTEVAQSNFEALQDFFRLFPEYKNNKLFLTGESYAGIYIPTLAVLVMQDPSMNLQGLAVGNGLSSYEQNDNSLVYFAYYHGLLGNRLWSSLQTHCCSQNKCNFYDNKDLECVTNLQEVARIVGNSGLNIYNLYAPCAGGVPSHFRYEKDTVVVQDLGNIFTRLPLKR
# Sequence (P10619 327-480 limits assumed): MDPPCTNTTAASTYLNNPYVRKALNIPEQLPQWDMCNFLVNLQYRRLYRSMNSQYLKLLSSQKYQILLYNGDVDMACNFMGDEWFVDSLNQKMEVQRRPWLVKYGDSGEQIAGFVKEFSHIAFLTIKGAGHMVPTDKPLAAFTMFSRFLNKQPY
# test.protocol: Cathepsin A inhibitory activity
# Assay type: biochemical
# assay.context: read-out: Activity (2): Cathepsin A inhibitory activity, IC50 class
pIC50: −log10 of the molar value.

Sample answers from the record:
| cpd.smiles | system.tested | test.value |
| --- | --- | --- |
| COc1ccccc1[C@H](CC(=O)O)NC(=O)c1cc(O)n(-c2ccc(F)cc2)n1 | Recombinant human cathepsin A (Homo sapiens, UniProt P10619) | 6.00 to 7.00 |
| Cc1cccc([C@H](CC(=O)O)NC(=O)c2cc(O)n(-c3ccc(F)cc3)n2)c1 | Recombinant human cathepsin A (Homo sapiens, UniProt P10619) | 6.00 to 7.00 |
| CC(C)(C)[C@H](O)COc1cc(C(=O)N[C@@H](CC(=O)O)c2ccc(Cl)cc2)nn1-c1ccccc1F | Recombinant human cathepsin A (Homo sapiens, UniProt P10619) | > 7.00 |

Okay, now this compound:
Task item: Fill in the recorded pIC50 for this compound, with Recombinant human cathepsin A (Homo sapiens, UniProt P10619) as test system: COc1cccc([C@H](CC(=O)O)NC(=O)c2cc(OC[C@](C)(O)C(C)C)n(-c3ccccc3F)n2)c1
Reply: > 7.00
